Just for reference, patent US5442064A is where these values come from.

# ASSAY TARGET: human thrombocytes
# ASSAY TEXT: Competitive binding of ^3 H-BIBU 52/test substance to human thrombocytes
# ASSAY SETUP: human thrombocytes in plasma; ^3 H-BIBU 52 5 nM; ambient temperature, 20 minutes
IC50 overview
All answers are understood in nM, so give the number only.

Answered examples (7):
SMILES STRING: NCc1ccc(N2CCC(C(=O)N[C@H]3CC[C@H](C(=O)O)CC3)CC2)cc1
ASSAY TARGET: human thrombocytes
UNIT SYMBOL: nM
IC50: 74

SMILES STRING: CC(C)OC(=O)[C@H]1CC[C@H](NC(=O)N2CCN(c3ccc(C(=N)N)cc3)CC2)CC1
ASSAY TARGET: human thrombocytes
UNIT SYMBOL: nM
IC50: 1200

SMILES STRING: NCc1ccc(N2CCN(C(=O)N[C@H]3CC[C@H](C(=O)O)CC3)CC2)nc1
ASSAY TARGET: human thrombocytes
UNIT SYMBOL: nM
IC50: 310

SMILES STRING: COC(=O)[C@H]1CC[C@H](NC(=O)N2CCN(c3ccc(CN)cc3)CC2)CC1
ASSAY TARGET: human thrombocytes
UNIT SYMBOL: nM
IC50: 5300

SMILES STRING: CN(C(=O)N1CCN(c2ccc(C(=N)N)cc2)CC1)[C@H]1CC[C@H](C(=O)O)CC1
ASSAY TARGET: human thrombocytes
UNIT SYMBOL: nM
IC50: 18

SMILES STRING: CN(C(=O)N1CCN(c2ccc(C(=N)N)cn2)CC1)[C@H]1CC[C@H](C(=O)O)CC1.Cl.Cl
ASSAY TARGET: human thrombocytes
UNIT SYMBOL: nM
IC50: 27

SMILES STRING: N=C(N)c1ccc(N2CCC(C(=O)N(CCCc3ccccc3)[C@H]3CC[C@H](C(=O)O)CC3)CC2)cc1
ASSAY TARGET: human thrombocytes
UNIT SYMBOL: nM
IC50: 4

Problem: Would you kindly share the measured IC50 for Cl.Cl.N=C(N)c1ccc(N2CCN(C(=O)N[C@H]3CC[C@H](C(=O)O)CC3)CC2)cc1.O ?
Solution: 7.4

###

# Test system: platelet aggregation
# ASSAY TEXT: Inhibition of platelet aggregation (collagen-induced, Born and Cross, platelet-rich plasma of healthy volunteers)
# Assay type: cell-based
# ASSAY SETUP: Homo sapiens, Platelet, 10 minutes preincubation at 37° C
# Experimental: In order to do this, donor blood is taken from an anticubital vein and anticoagulated with trisodium citrate (final concentration 13 mM). The blood is centrifuged for 10 minutes at 170×g and the supernatant platelet-rich plasma (PRP) is removed. […] 100 μl thereof are measured in order to determine the free ligand. The pellet is dissolved in 500 μl of 0.2N NaOH, 450 μl are mixed with 2 ml of scintillator and 25 μl of 5N HCl and measured. […]
OBSERVATION TYPE: pEC50
By convention, pEC50 is the negative base-10 log of a molar concentration.

Answered examples (2):
SMILES STRING: COC(=O)CC1CCN(C(=O)N2CCN(c3ccc(C(=N)N)cc3)CC2)CC1
pEC50: 5.17

SMILES STRING: CC(C)OC(=O)[C@H]1CC[C@H](NC(=O)N2CCN(c3ccc(C(=N)N)cc3)CC2)CC1
pEC50: 6.55

Problem: Would you kindly share the measured pEC50 for COC(=O)[C@H]1CC[C@H](N(C)C(=O)N2CCN(c3ccc(C(=N)N)cc3)CC2)CC1 ?
Solution: 6.96

Problem: Would you kindly share the measured pEC50 for COC(=O)[C@H]1CC[C@H](N(C)C(=O)N2CCN(c3ccc(C(=N)N)cn3)CC2)CC1 ?
Solution: 7.05

Problem: Would you kindly share the measured pEC50 for CN(C(=O)N1CCN(c2ccc(C(=N)N)cc2)CC1)[C@H]1CC[C@H](C(=O)OC2CCCCC2)CC1 ?
Solution: 6.44

###

# ASSAY TARGET: human thrombocytes
# ASSAY TEXT: Competitive binding of ^3 H-BIBU 52/test substance to human thrombocytes
# ASSAY SETUP: human thrombocytes in plasma; ^3 H-BIBU 52 5 nM; ambient temperature, 20 minutes
OBSERVATION TYPE: pIC50
By convention, pIC50 is the negative base-10 log of a molar concentration.

COMPOUND: CCCCCN(C(=O)C1CCN(c2ccc(C(=N)N)cc2)CC1)[C@H]1CC[C@H](C(=O)O)CC1 [3(26)]
REPORTED: 7.92

COMPOUND: N=C(N)c1ccc(C2CCN(C(=O)N[C@H]3CC[C@H](C(=O)O)CC3)CC2)cc1 [2(3)]
REPORTED: 8.35

COMPOUND: N=C(N)c1ccc(N2CCN(C(=O)N3CCC(CC(=O)O)CC3)CC2)cc1 [2(17)]
REPORTED: 7.36

COMPOUND: N=C(N)c1ccc(N2CCN(C(=O)N3CC=C(CC(=O)O)CC3)CC2)cc1 [2(19)]
REPORTED: 6.43

COMPOUND: N=C(N)c1ccc(N2CCC(C(=O)N(CCc3ccccc3)[C@H]3CC[C@H](C(=O)O)CC3)CC2)cc1 [3(24)]
REPORTED: 8.04

Problem: Would you kindly share the measured pIC50 for CN(C(=O)N1CCN(c2ccc(C(=N)N)cc2)CC1)[C@H]1CC[C@H](C(=O)OC2CCCCC2)CC1 [7(2)] ?
Solution: 5.68

###

# Test system: platelet aggregation
# ASSAY TEXT: Inhibition of platelet aggregation (collagen-induced, Born and Cross, platelet-rich plasma of healthy volunteers)
# Type: cell-based
# ASSAY SETUP: Homo sapiens, Platelet, 10 minutes preincubation at 37° C
OBSERVATION TYPE: log10 EC50 (log10 of the value in nM)
Would you kindly interpret these values as log10 of EC50 expressed in nM?

Answered examples (5):
COMPOUND: N=C(N)c1ccc(N2CCC(C(=O)N[C@H]3CC[C@H](C(=O)O)CC3)CC2)nc1 [2(2)]
REPORTED: 1.95
--
COMPOUND: N=C(N)c1ccc(N2CCC(C(=O)N(CCc3ccccc3)[C@H]3CC[C@H](C(=O)O)CC3)CC2)cc1 [3(24)]
REPORTED: 2.04
--
COMPOUND: N=C(N)c1ccc(N2CCC(C(=O)N3CCC(CC(=O)O)CC3)CC2)cc1 [3(4)]
REPORTED: 2.00
--
COMPOUND: COC(=O)[C@H]1CC[C@H](NC(=O)C2CCN(c3ccc(C(=N)N)cc3)CC2)CC1.Cl [Example 1(24)]
REPORTED: 2.34
--
COMPOUND: Cl.Cl.N=C(N)c1ccc(N2CCN(C(=O)N[C@H]3CC[C@H](C(=O)O)CC3)CC2)cc1.O [Example 2]
REPORTED: 1.60

Problem: Would you kindly share the measured log10 EC50 for NCc1ccc(N2CCC(C(=O)N[C@H]3CC[C@H](C(=O)O)CC3)CC2)cc1 [3(17)] ?
Solution: 2.26

Problem: Would you kindly share the measured log10 EC50 for CN(C(=O)N1CCN(c2ccc(C(=N)N)cc2)CC1)[C@H]1CC[C@H](C(=O)O)CC1 [2(1)] ?
Solution: 1.60

Problem: Would you kindly share the measured log10 EC50 for NCc1ccc(N2CCN(C(=O)N[C@H]3CC[C@H](C(=O)O)CC3)CC2)cc1 [Example 3] ?
Solution: 2.36

Problem: Would you kindly share the measured log10 EC50 for N=C(N)c1ccc(N2CCC(C(=O)N3CCC(CC(=O)O)CC3)CC2)nc1 [2(42)] ?
Solution: 2.23

Problem: Would you kindly share the measured log10 EC50 for N=C(N)c1ccc(N2CCC(C(=O)N[C@H]3CC[C@H](C(=O)O)CC3)CC2)cc1 [3(15)] ?
Solution: 1.48

Problem: Would you kindly share the measured log10 EC50 for CCOC(=O)[C@H]1CC[C@H](NC(=O)N2CCN(c3ccc(C(=N)N)cc3)CC2)CC1 [Example 8] ?
Solution: 2.28

Problem: Would you kindly share the measured log10 EC50 for N=C(N)c1ccc(N2CCC(CC(=O)NCCC(=O)O)CC2)cc1 [3(12)] ?
Solution: 2.46

Problem: Would you kindly share the measured log10 EC50 for CCCCCN(C(=O)C1CCN(c2ccc(C(=N)N)cc2)CC1)[C@H]1CC[C@H](C(=O)O)CC1 [3(26)] ?
Solution: 1.81

Problem: Would you kindly share the measured log10 EC50 for NCc1ccc(N2CCN(C(=O)N[C@H]3CC[C@H](C(=O)O)CC3)CC2)nc1 [2(22)] ?
Solution: 2.83

Problem: Would you kindly share the measured log10 EC50 for Cl.Cl.N=C(N)c1ccc(N2CCN(C(=O)N[C@H]3CC[C@H](C(=O)O)CC3)CC2)nc1 [2(7)] ?
Solution: 1.90

Problem: Would you kindly share the measured log10 EC50 for N=C(N)c1ccc(N2CCN(C(=O)N(Cc3ccccc3)[C@H]3CC[C@H](C(=O)O)CC3)CC2)cc1 [2(6)] ?
Solution: 1.60

Problem: Would you kindly share the measured log10 EC50 for CN(C(=O)N1CCN(c2ccc(C(=N)N)cn2)CC1)[C@H]1CC[C@H](C(=O)O)CC1.Cl.Cl [2(8)] ?
Solution: 1.78

Problem: Would you kindly share the measured log10 EC50 for COC(=O)[C@H]1CC[C@H](NC(=O)N2CCC(c3ccc(C(=N)N)cc3)CC2)CC1 [1(5)] ?
Solution: 1.90

Problem: Would you kindly share the measured log10 EC50 for N=C(N)c1ccc(N2CCN(C(=O)N3CCC(CC(=O)O)CC3)CC2)cc1 [2(17)] ?
Solution: 2.11

Problem: Would you kindly share the measured log10 EC50 for N=C(N)c1ccc(N2CCC(C(=O)N(CCCc3ccccc3)[C@H]3CC[C@H](C(=O)O)CC3)CC2)cc1 [3(25)] ?
Solution: 1.72

Problem: Would you kindly share the measured log10 EC50 for N=C(N)c1ccc(N2CCN(C(=O)N3CC=C(CC(=O)O)CC3)CC2)cc1 [2(19)] ?
Solution: 2.79

Problem: Would you kindly share the measured log10 EC50 for N=C(NC(=O)OCc1ccccc1)c1ccc(N2CCN(C(=O)N[C@H]3CC[C@H](C(=O)O)CC3)CC2)cc1 [3(1)] ?
Solution: 2.82

Problem: Would you kindly share the measured log10 EC50 for NCc1ccc(C2CCN(C(=O)N[C@H]3CC[C@H](C(=O)O)CC3)CC2)cc1 [2(11)] ?
Solution: 2.58

Problem: Would you kindly share the measured log10 EC50 for COC(=O)[C@H]1CC[C@H](NC(=O)N2CCN(c3ccc(CN)cc3)CC2)CC1 [Example 4] ?
Solution: 3.63
